B1: MATN2 (parent)
chain: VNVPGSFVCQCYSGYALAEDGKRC

variants of: B1; experiment: protein stability index of a GFP-peptide fusion (GPS, HEK-293T) (PSI 1-6); higher = more stable; conditions: c terminus: a fixed tail appended;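 note: lentivirally expressed fusions sorted by FACS into six bins by GFP to DsRed ratio, PSI derived from sequencing read proportions per bin multiplied by bin number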
Give measured protein stability index for each item. Keep answers brief.
One number for each entry.

Seq Text	protein stability index
VNVPGSFVCQCYSGYAKAEDGKRC	1.81
VNVPGSFVCQCYSGNALAEDGKRC	2.19

Here are 2 variants. What values of protein stability index were reported for them?
1. VNVPISFVCQCYSGYALAEDGKRC
2. VNVPGSFVCQCYSGYALAADGKRC

Response:
1. 1.45
2. 1.93

Here are 8 variants. What values of protein stability index were reported for them?
1. VNVPGSFVCQCYSGYALAEDGKRR
2. VNAPGSFVCQCYSGYALAEDGKRC
3. VNVPGSFVCQCYSGYALQEDGKRC
4. VVVPGSFVCQCYSGYALAEDGKRC
5. VNVPGSFVEQCYSGYALAEDGKRC
6. VNVPGSFVCQCYSGYALAEDGKRT
7. VNVPGSFVKQCYSGYALAEDGKRC
8. VNVPGSFVCQCYIGYALAEDGKRC

Response:
1. 1.25
2. 1.49
3. 2.38
4. 1.25
5. 3.33
6. 2.13
7. 3.08
8. 1.62

Here are 4 variants. What values of protein stability index were reported for them?
1. VNVPGSFVCQCYSGYALAEFGKRC
2. VNVPGSFVCQCYSGYALEEDGKRC
3. INVPGSFVCQCYSGYALAEDGKRC
4. VNVPGSFVCQEYSGYALAEDGKRC

Response:
1. 2.57
2. 2.56
3. 2.43
4. 3.27

Here are 7 variants. What values of protein stability index were reported for them?
1. VNVPGSFVCQCYSGYALAEDGKRA
2. VNVPGSFVCQCYSGYVLAEDGKRC
3. VNVPGSFVCQCYSGYALAEDGKLC
4. VNVPGSLVCQCYSGYALAEDGKRC
5. VNVPGSFVRQCYSGYALAEDGKRC
6. VNVPGSFVCQCYSGYALLEDGKRC
7. VNVPGSFVCRCYSGYALAEDGKRC

Response:
[1.73, 1.62, 2.62, 2.07, 2.69, 2.32, 2.01]
